# credit: patent US4975433A

Conditions: mouse
Marks after values point to notes of the source that are not given here.
recorded-endpoint: Kp, steady-state phase

* CN(C)CNc1nc(=O)n(CN(C)C)cc1F [XIII, hydrate] | 365 cm/h (× 10^3)
* CN1CCN(CNc2nc(=O)n(CN3CCN(C)CC3)cc2F)CC1 [XVII, hydrate] | 919 cm/h (× 10^3)
* O=c1nc(NCN2CCOCC2)c(F)cn1CN1CCOCC1 [XVI, hydrate] | 213 cm/h (× 10^3)
* O=c1nc(NCN2CCCCC2)c(F)cn1CN1CCCCC1 [XIIb] | 716 cm/h (× 10^3)
* O=c1nc(NCN2CCCCC2)c(F)cn1CN1CCCCC1 [XIIa] | 1671 cm/h (× 10^3)
